Cited source for all entries: patent US11174252B2

- assayTarget: CDK4 (Homo sapiens (Human), UniProt P11802)
- Sequence (P11802 whole entry): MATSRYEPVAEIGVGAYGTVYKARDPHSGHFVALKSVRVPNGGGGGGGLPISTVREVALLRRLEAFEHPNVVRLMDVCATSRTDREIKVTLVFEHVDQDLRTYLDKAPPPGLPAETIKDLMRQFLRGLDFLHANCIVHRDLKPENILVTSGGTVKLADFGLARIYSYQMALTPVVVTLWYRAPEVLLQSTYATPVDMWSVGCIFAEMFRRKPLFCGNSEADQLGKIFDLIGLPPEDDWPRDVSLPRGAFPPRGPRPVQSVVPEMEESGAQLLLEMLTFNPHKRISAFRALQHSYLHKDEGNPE
- Sequence (P24385 whole entry partner): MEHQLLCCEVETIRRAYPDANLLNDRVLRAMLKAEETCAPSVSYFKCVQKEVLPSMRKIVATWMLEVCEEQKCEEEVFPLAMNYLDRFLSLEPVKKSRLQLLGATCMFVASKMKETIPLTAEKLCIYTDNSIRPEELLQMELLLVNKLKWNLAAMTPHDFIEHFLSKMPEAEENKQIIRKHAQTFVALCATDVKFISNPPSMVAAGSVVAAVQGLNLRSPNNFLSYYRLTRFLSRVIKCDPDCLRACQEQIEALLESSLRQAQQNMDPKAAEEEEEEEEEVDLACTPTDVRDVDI

>  <compoundStructureString>
CC(C)N1CCOc2c(F)cc(-c3nc(Nc4ccc(C5CCN(C(=O)CN(C)C)CC5)c(F)c4)ncc3F)cc21

>  <assayTarget>
CDK4 (Homo sapiens (Human), UniProt P11802)

>  <unit>
nM

>  <IC50>
28

$$$$
>  <compoundStructureString>
CCCN1CCOc2c(F)cc(-c3nc(Nc4ccc(N5CCNCC5)c(F)c4)ncc3F)cc21

>  <assayTarget>
CDK4 (Homo sapiens (Human), UniProt P11802)

>  <unit>
nM

>  <IC50>
4

$$$$
>  <compoundStructureString>
CN1CCOc2c(F)cc(-c3nc(Nc4ccc(N5CCC(N(C)C)CC5)c(F)c4)ncc3F)cc21

>  <assayTarget>
CDK4 (Homo sapiens (Human), UniProt P11802)

>  <unit>
nM

>  <IC50>
4

$$$$
>  <compoundStructureString>
CC(C)N1CCOc2c(F)cc(-c3nc(Nc4ccc(N5CCNCC5)c(F)c4)ncc3Cl)cc21

>  <assayTarget>
CDK4 (Homo sapiens (Human), UniProt P11802)

>  <unit>
nM

>  <IC50>
1

$$$$
>  <compoundStructureString>
CC(C)N1CCOc2c(F)cc(-c3nc(Nc4ccc(CN5CCN(CC6CC6)CC5)cn4)ncc3F)cc21

>  <assayTarget>
CDK4 (Homo sapiens (Human), UniProt P11802)

>  <unit>
nM

>  <IC50>
1

$$$$
>  <compoundStructureString>
CC(C)N1CCOc2c(F)cc(-c3nc(Nc4ccc(N5CCOCC5)cn4)ncc3F)cc21

>  <assayTarget>
CDK4 (Homo sapiens (Human), UniProt P11802)

>  <unit>
nM

>  <IC50>
3.9

$$$$
>  <compoundStructureString>
Fc1cnc(Nc2ccc3c(n2)CCNC3)nc1-c1cc(F)c2c(c1)N(C1CCCC1)CCO2

>  <assayTarget>
CDK4 (Homo sapiens (Human), UniProt P11802)

>  <unit>
nM

>  <IC50>
5

$$$$
